tested on: Danio rerio larvae (5 dpf); assay: difference in habituation to acoustic stimuli vs DMSO (percentage points); higher = more habituation than DMSO; conditions: 10 µM; exposure time 6 h
Structures can show the parent of a compound that is named as a salt.
ASSAY_READOUT: difference in habituation to acoustic stimuli
Answers are plain numbers.

N=C(N)NCCCC[C@@H]1NC(=O)CCSSC[C@@H](C(N)=O)NC(=O)[C@@H]2CCCN2C(=O)[C@H](Cc2c[nH]c3ccccc23)NC(=O)[C@H](CC(=O)O)NC(=O)CNC1=O [Eptifibatide]; -3.64
NS(=O)(=O)c1cc2c(cc1Cl)N=CNS2(=O)=O [Chlorothiazide]; 6.65
Nc1nc(O)c2ncn(CCC(CO)CO)c2n1; -1.73
CCCSc1nc(N[C@@H]2C[C@H]2c2ccc(F)c(F)c2)c2nnn([C@@H]3C[C@H](OCCO)[C@@H](O)[C@H]3O)c2n1; 1.79
O=c1[nH]cc(F)c(=O)[nH]1; 0.939
NS(=O)(=O)c1cc2c(cc1C(F)(F)F)NC(Cc1ccccc1)NS2(=O)=O (stereo unspecified) [Bendroflumethiazide]; -7.63
CC(C)C(=O)OCC(=O)[C@@]12O[C@H](C3CCCCC3)O[C@@H]1C[C@H]1[C@@H]3CCC4=CC(=O)C=C[C@]4(C)[C@H]3[C@@H](O)C[C@@]12C [Ciclesonide]; -5.49
COc1cccc(N2CCN(C3=Nc4c(F)cccc4[C@H](CC(=O)O)N3c3cc(C(F)(F)F)ccc3OC)CC2)c1; -5.75
O=C(c1ccc(OCCN2CCCCC2)cc1)c1c(-c2ccc(O)cc2)sc2cc(O)ccc12 [Raloxifene (hydrochloride)]; 2.6
CSc1ccc2c(c1)N(CCC1CCCCN1C)c1ccccc1S2 (stereo unspecified) [Thioridazine (hydrochloride)]; -8.21

Hi team, please reply with difference in habituation to acoustic stimuli for each item in this list.
1. COc1ccc2cc(CCC(C)=O)ccc2c1
2. CC(Oc1c(Cl)cccc1Cl)C1=NCCN1 (stereo unspecified) [Lofexidine (hydrochloride)]
3. CN(C)CCC(c1ccc(Br)cc1)c1ccccn1 (stereo unspecified) [Brompheniramine (maleate)]
4. Cn1cnc([N+](=O)[O-])c1Sc1ncnc2[nH]cnc12
5. CO[C@@]1(NC(=O)C2SC(=C(C(N)=O)C(=O)O)S2)C(=O)N2C(C(=O)O)=C(CSc3nnnn3C)CS[C@@H]21 (stereo partly specified) [Cefotetan (sodium salt)]
6. O=C(O)CCCc1ccccc1 [Sodium 4-Phenylbutyrate]

(A)
1: -1.53; 2: 0.884; 3: -3.69; 4: 4.62; 5: 7.15; 6: 1.43
